This collection of values is drawn from patent US20250152746A1.

System: PCSK9 gene
Assay: PCSK9 gRNA/SpCas9 editing in primary cynomolgus hepatocytes (Tables 2, 22)
Format: cell-based, cynomolgus monkey
Settings: SpCas9 mRNA MS002, 1250 ng/test article/mL, rep1
Experimental: In set of experiments, PCSK9 gRNAs were co-transfected with an equivalent amount (1:1 ratio by weight) of in vitro transcribed commercially available SpCas9 mRNA MS002 purchased from TriLink Biotechnologies into primary human hepatocytes at 2500, 500, or 100 ng/RNA/mL and processed as described in detailed methods. Extracted genomic DNA was analyzed for gene editing at the target site with next-generation sequencing of PCR amplicons generated around the target sites. […]
In the oligonucleotide strings, read from the 5' end, every base follows the letter of its sugar. An asterisk marks phosphorothioate; unmarked linkages are phosphodiester. Other units and linkages are bracketed, terminal groups are in braces. A string of capitals states the bases alone. m = 2'-O-methyl; r = 2'-OH (RNA)
Item-by-item account of Cynomolgus Primary Hepatocytes-% Editing
// units = %; emit number, no label

Looking up GA397 (nucleic acid) guide: mU*mC*mA*rGrCrUrCrCrArGrGrCrGrGrUrCrCrUrGrGmGrUrUrUrUrArGmAmGmCmUmArGmAmAmAmUmAmGmCmAmArGrUrUmArAmArAmUrAmAmGmGmCmUmArGrUmCmCrGrUrU*rAmUmCrArAmCmUmUrGmAmAmAmAmAmGmUmGrGmCmAmCmCmGmAmGmUmCmGmGmUmGmCmU*mU*mU*mUmUmUmU , I found its Cynomolgus Primary Hepatocytes-% Editing recorded as 56.47

Looking up GA403 (nucleic acid) guide: mU*mC*mA*rGrCrUrCrCrArGrGrCrGrGrUrCrCrUrGrGmGrUrUrUrUrArGmAmGmCmUmArGmAmAmAmUmAmGmCmAmArGrUrU*mArAmArAmUrAmAmGmGmCmUmArGrUmCmCrGrUrUrAmUmCrArAmCmUmUrGmAmAmAmAmAmGmUmGrGmCmAmCmCmGmAmGmUmCmGmGmUmGmCmU*mU*mU*mUmUrUmU , I found its Cynomolgus Primary Hepatocytes-% Editing recorded as 50.5
